Each recorded value in this set is attributed to IntAct's records for PubMed 20173742.

B1: Kelch-like ECH-associated protein 1 (Mus musculus), Q9Z2X8 (parent)
chain: MQPEPKLSGAPRSSQFLPLWSKCPEGAGDAVMYASTECKAEVTPSQDGNRTFSYTLEDHTKQAFGVMNELRLSQQLCDVTLQVKYEDIPAAQFMAHKVVLASSSPVFKAMFTNGLREQGMEVVSIEGIHPKVMERLIEFAYTASISVGEKCVLHVMNGAVMYQIDSVVRACSDFLVQQLDPSNAIGIANFAEQIGCTELHQRAREYIYMHFGEVAKQEEFFNLSHCQLATLISRDDLNVRCESEVFHACIDWVKYDCPQRRFYVQALLRAVRCHALTPRFLQTQLQKCEILQADARCKDYLVQIFQELTLHKPTQAVPCRAPKVGRLIYTAGGYFRQSLSYLEAYNPSNGSWLRLADLQVPRSGLAGCVVGGLLYAVGGRNNSPDGNTDSSALDCYNPMTNQWSPCASMSVPRNRIGVGVIDGHIYAVGGSHGCIHHSSVERYEPERDEWHLVAPMLTRRIGVGVAVLNRLLYAVGGFDGTNRLNSAECYYPERNEWRMITPMNTIRSGAGVCVLHNCIYAAGGYDGQDQLNSVERYDVETETWTFVAPMRHHRSALGITVHQGKIYVLGGYDGHTFLDSVECYDPDSDTWSEVTRMTSGRSGVGVAVTMEPCRKQIDQQNCTC
partner: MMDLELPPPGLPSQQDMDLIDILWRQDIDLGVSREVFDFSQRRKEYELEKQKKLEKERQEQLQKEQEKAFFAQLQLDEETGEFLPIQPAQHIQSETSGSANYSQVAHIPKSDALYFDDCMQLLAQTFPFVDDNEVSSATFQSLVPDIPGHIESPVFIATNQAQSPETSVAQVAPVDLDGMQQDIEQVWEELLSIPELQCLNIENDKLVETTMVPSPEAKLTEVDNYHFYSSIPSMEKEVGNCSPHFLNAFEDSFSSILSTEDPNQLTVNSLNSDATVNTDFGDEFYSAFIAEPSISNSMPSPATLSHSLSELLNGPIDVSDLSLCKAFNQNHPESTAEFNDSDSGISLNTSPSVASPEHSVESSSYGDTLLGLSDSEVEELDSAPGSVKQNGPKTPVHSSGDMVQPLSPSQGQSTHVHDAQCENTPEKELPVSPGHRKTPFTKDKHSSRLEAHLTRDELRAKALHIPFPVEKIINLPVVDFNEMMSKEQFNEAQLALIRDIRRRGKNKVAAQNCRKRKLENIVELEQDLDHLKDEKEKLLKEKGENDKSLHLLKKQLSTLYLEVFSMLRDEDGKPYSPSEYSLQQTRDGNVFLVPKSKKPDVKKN

variants of: B1; conditions: with nf2l2_human NFE2L2, Q16236

Mutant code | effect of a mutation on the interaction
R380A | decreasing interaction
Q530A | decreasing interaction
Y334A | disrupting interaction
S602A | disrupting interaction
N382A | disrupting interaction
S363A | disrupting interaction
R415A | disrupting interaction
S508A | disrupting interaction
S555A | decreasing interaction
